Attribute: IC50
biological target: human recombinant Btk (Homo sapiens, UniProt Q06187); assay: Human Recombinant Btk Enzyme Assay (LLE_BTK)
Sequence (Q06187 whole entry): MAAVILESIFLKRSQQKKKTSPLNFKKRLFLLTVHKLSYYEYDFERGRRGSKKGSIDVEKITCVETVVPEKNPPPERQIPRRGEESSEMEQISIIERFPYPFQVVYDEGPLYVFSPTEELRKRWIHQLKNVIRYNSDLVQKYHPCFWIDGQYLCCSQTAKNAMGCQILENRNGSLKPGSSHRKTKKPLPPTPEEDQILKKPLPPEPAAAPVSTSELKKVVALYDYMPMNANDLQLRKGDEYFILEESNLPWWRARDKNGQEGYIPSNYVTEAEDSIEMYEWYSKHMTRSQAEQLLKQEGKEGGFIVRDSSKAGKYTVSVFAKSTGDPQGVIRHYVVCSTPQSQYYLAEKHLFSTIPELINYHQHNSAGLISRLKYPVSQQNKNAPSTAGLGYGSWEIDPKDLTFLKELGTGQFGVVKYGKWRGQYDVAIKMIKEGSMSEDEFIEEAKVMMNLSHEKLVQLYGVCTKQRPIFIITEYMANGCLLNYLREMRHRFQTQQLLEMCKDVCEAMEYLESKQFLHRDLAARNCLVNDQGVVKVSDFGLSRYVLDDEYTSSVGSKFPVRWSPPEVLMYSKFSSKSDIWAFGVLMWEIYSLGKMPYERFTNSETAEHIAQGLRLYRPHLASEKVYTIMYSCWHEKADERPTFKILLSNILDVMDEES
Only the number, expressed in nM, is required.

> print(dat)
                                   compound  test.readout  unit.symbol  value.observed
1  CN1CCN(c2ccc(Nc3nc(N4CCC[C@@H](N5CCCC5=O)C4)c(F)cc3C(N)=O)cc2)CC1          IC50           nM               1
2  CN(c1cccc(Nc2nc(N3CCOCC3)c(F)cc2C(N)=O)c1)S(=O)(=O)c1ccc(-c2ccccc2)cc1          IC50           nM            1100
3  N#Cc1ccc(Nc2nc(N3CCC[C@@H](N)C3)ccc2C(N)=O)cc1          IC50           nM             880
4  NC(=O)c1ccc(-c2cccc3c2CCN(C(=O)c2ccccc2)C3)nc1Nc1ccc(-c2cnco2)cc1          IC50           nM            2900
5  COc1ccc([C@H](C)N[C@@H]2C=C(c3nc(Nc4ccc(N5CCOCC5)cc4)c(C(N)=O)cc3F)CCC2)cc1          IC50           nM             740

Query: Field request: IC50 | item: CN1CCC(C)(c2ccc(Nc3nc(N4CCC[C@@H](NC(=O)Nc5nccs5)C4)c(F)cc3C(N)=O)cc2)CC1
Reply: 0.7

Query: Consider the compound shown here: CS(=O)(=O)c1ccc(Nc2nc(N3CCC[C@@H](NC(=O)Nc4nccs4)C3)c(F)cc2C(N)=O)cc1 What is its recorded IC50?
Reply: 3

Query: Given NC(=O)c1ccc(N2CCC[C@@H](NC(=O)c3cccc(-c4nc5ccccc5[nH]4)c3)C2)nc1Nc1ccc(C(=O)N2CCOCC2)cc1 , state its recorded IC50.
Reply: 0.9

The measured values listed here are drawn from patent US8586751B2.
